Molecular target: S-adenosylmethionine synthase isoform type-2 (Homo sapiens, UniProt P31153)
Sequence (P31153 whole entry, canonical isoform): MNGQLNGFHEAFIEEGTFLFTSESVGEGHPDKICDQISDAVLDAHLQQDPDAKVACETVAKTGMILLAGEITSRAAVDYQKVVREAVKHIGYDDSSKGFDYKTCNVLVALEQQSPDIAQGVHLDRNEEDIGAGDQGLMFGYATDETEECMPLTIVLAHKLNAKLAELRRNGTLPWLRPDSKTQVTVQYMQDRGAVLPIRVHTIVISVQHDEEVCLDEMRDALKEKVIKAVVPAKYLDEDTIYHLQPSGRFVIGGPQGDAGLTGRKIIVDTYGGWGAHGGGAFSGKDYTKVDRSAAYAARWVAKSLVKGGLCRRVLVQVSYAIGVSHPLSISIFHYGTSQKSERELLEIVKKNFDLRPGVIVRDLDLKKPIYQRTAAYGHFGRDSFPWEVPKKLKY
Assay: Inhibition of recombinant human MAT2A expressed in baculovirus infected Sf9 cells assessed as S-adenosyl methionine production using L-methionine as substrate preincubated for 60 mins followed by substrate addition and measured after 60 mins in presence of ATP
In this section, each of the molecules is paired with its reported pIC50.
Here pIC50 is given on a logarithmic scale as minus log10 of the concentration in mol/L.

Reference set, count: 4
## Task Notebook: pull reported pIC50 for S-adenosylmethionine synthase isoform type-2 (Homo sapiens, UniProt P31153), entry Cc1nc(NCC2CC2)nc2c1COCC21CCN(Cc2ccccc2F)C1 (centres undefined)
## Result 5.14

## Task Form field: pIC50 recorded for COc1ccc(-n2cc3cnc(NCCC(F)(F)F)nc3c(-c3ccc(Br)cc3)c2=O)cc1 with S-adenosylmethionine synthase isoform type-2 (Homo sapiens, UniProt P31153) (enter value)
## Result 6.49

## Task Can you look up pIC50 on S-adenosylmethionine synthase isoform type-2 (Homo sapiens, UniProt P31153) for COc1ccc(N2Cc3cnc(NCC4CC4)nc3C3(CCN(Cc4ccsc4)C3)C2=O)cc1 (centres undefined) ?
## Result 6.29

## Task Please provide the recorded pIC50 for CCNc1ncc2cn(-c3ccc(OC)cc3)c(=O)c(-c3ccc(Br)cc3)c2n1 , tested on S-adenosylmethionine synthase isoform type-2 (Homo sapiens, UniProt P31153).
## Result 7.47

***
## Task Checklist item: pIC50 tested on S-adenosylmethionine synthase isoform type-2 (Homo sapiens, UniProt P31153), entry COc1ccc(-n2cc3cnc(N(C)CC(F)(F)F)nc3c(-c3ccc(Br)cc3)c2=O)cc1 , value?
## Result 5.48

## Task Which pIC50 is reported with S-adenosylmethionine synthase isoform type-2 (Homo sapiens, UniProt P31153) for this entry: COc1ccc(N2Cc3cnc(NCC4CC4)nc3C3(CCN(Cc4ccon4)C3)C2=O)cc1 (centres undefined) ?
## Result 6.28

## Task Give the reported pIC50 for CCCNc1ncc2cn(-c3ccc(OC)cc3)c(=O)c(-c3ccc(Br)cc3)c2n1 (system: S-adenosylmethionine synthase isoform type-2 (Homo sapiens, UniProt P31153)).
## Result 7.32

## Task Request - read-out pIC50 | tested on S-adenosylmethionine synthase isoform type-2 (Homo sapiens, UniProt P31153) | molecule COc1ccc(N2Cc3cnc(NCC4CC4)nc3C3(CCN(Cc4cnc(N)s4)C3)C2=O)cc1 (centres undefined)
## Result 6.39

## Task Recorded pIC50 for COc1ccc(N2Cc3cnc(NCC4CC4)nc3C3(CCN(Cc4cscn4)C3)C2=O)cc1 (centres undefined) with S-adenosylmethionine synthase isoform type-2 (Homo sapiens, UniProt P31153), please?
## Result 6.21
